Biological target: full-length beta-Catenin (Uniprot ID P35222) (Homo sapiens)
Construct: 10 nM full-length beta-Catenin (Uniprot ID P35222)
Sequence (P35222 whole entry): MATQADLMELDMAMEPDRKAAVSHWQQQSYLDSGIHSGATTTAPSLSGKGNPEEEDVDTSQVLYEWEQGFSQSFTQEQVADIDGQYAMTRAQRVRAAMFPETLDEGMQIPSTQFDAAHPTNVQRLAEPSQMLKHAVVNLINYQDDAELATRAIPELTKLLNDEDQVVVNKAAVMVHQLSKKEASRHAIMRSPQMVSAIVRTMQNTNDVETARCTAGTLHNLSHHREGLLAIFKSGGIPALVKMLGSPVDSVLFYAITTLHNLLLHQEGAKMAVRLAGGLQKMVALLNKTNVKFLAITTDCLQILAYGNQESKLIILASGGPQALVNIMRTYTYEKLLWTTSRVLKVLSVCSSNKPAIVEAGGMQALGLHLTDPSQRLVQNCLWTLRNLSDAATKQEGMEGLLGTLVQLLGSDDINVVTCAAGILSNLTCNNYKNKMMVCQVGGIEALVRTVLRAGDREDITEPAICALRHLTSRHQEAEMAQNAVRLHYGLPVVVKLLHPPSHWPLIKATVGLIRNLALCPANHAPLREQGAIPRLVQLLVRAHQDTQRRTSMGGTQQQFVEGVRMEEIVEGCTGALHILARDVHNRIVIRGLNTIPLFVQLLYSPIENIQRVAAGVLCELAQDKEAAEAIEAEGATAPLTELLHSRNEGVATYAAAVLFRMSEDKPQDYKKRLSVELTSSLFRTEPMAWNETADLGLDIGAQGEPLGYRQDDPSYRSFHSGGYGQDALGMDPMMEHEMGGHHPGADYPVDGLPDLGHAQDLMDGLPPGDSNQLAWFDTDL
Assay: Fluorescence polarization IC50 (beta-catenin / 5FAM-TCF4 10-53 competition)
Type: binding
Details: read-out: beta-Catenin FP IC50
readout: pIC50
Formally, pIC50 is defined as -log10 of the concentration c, with c in mol/L.

CC(=O)N1CCC[C@]12CC=CCCCC1(CCCC=CCCCOC(=O)N3CC[C@@](C(=O)N[C@@H](Cc4ccsc4)C(=O)N[C@@H](Cc4csc5ccccc45)C(=O)N[C@@H](CCC(N)=O)C(N)=O)(C3)NC(=O)[C@H](CC(N)=O)NC(=O)[C@H](Cc3ccccc3)NC(=O)[C@H](CCCCNC(=O)C3CCN(C4CCN(C)CC4)CC3)NC(=O)[C@H](C)NC(=O)[C@H](CC(=O)O)NC(=O)[C@H](CC(=O)O)NC1=O)NC(=O)[C@H](CC(C)(C)C)NC(=O)[C@H](CC(=O)O)NC2=O (some centres unmarked) [I-888]
7.89
CC(=O)N1CCC[C@]12CC=CCCCC1(CCCC=CCCCOC(=O)N3CC[C@@](C(=O)N[C@@H](Cc4ccsc4)C(=O)N[C@@H](Cc4csc5ccccc45)C(=O)N[C@@H](CO)C(N)=O)(C3)NC(=O)[C@H]([C@@H](C)O)NC(=O)[C@H](Cc3ccccc3)NC(=O)[C@H](C)NC(=O)[C@H](C)NC(=O)[C@H](CN(CC(=O)O)CC(F)(F)F)NC(=O)[C@H](CC(=O)O)NC1=O)NC(=O)[C@H](CC(C)(C)C)NC(=O)[C@H](CC(=O)O)NC2=O (some centres unmarked) [I-956]
5.96
CC(=O)N1CCC[C@]12CC=CCCCC1(CCCC=CCCCOC(=O)N3CC[C@@](C(=O)N[C@@H](Cc4ccccc4C)C(=O)N[C@@H](Cc4csc5ccccc45)C(=O)N[C@@H](Cc4c[nH]cn4)C(N)=O)(C3)NC(=O)[C@H](CC(N)=O)NC(=O)[C@H](Cc3ccccc3)NC(=O)[C@H](C)NC(=O)[C@H](C)NC(=O)[C@H](CC(=O)O)NC(=O)[C@H](CC(=O)O)NC1=O)NC(=O)[C@H](CC(C)(C)C)NC(=O)[C@H](CC(=O)O)NC2=O (some centres unmarked) [I-782]
8.22
CC(=O)N1CCC[C@]12CC=CCCCC1(CCCC=CCCCOC(=O)N3CC[C@@](C(=O)N[C@@H](Cc4ccccc4Cl)C(=O)N[C@@H](Cc4csc5ccccc45)C(=O)N[C@@H](CCC(N)=O)C(N)=O)(C3)NC(=O)[C@H](CC(N)=O)NC(=O)[C@H](Cc3ccccc3)NC(=O)[C@H](C)NC(=O)[C@H](CO)NC(=O)[C@H](CN(CC(=O)O)CC(F)(F)F)NC(=O)[C@H](CC(=O)O)NC1=O)NC(=O)[C@H](CC(C)(C)C)NC(=O)[C@H](CC(=O)O)NC2=O (some centres unmarked) [I-1009]
7.96

Here is the next item to consider.
// pIC50 lookup, compound = CC(=O)N1CCC[C@]12CC=CCCCC1(CCCC=CCCCOC(=O)N3CC[C@@](C(=O)N[C@@H](Cc4ccsc4)C(=O)N[C@@H](Cc4csc5ccccc45)C(=O)N[C@@H](CCC(N)=O)C(N)=O)(C3)NC(=O)[C@H](CC(N)=O)NC(=O)[C@H](Cc3ccccc3)NC(=O)[C@H](C)NC(=O)[C@H](C)NC(=O)[C@H](CN(CC(=O)O)CC(F)(F)F)NC(=O)[C@H](CC(=O)O)NC1=O)NC(=O)[C@H](CC(C)(C)C)NC(=O)[C@H](CC(=O)O)NC2=O (single isomer, unassigned) [I-762] , result: 8.30
